- Measured target: human creatine transporter (hCRT, SLC6A8) (Homo sapiens, UniProt P48029)
- Sequence (P48029 whole entry): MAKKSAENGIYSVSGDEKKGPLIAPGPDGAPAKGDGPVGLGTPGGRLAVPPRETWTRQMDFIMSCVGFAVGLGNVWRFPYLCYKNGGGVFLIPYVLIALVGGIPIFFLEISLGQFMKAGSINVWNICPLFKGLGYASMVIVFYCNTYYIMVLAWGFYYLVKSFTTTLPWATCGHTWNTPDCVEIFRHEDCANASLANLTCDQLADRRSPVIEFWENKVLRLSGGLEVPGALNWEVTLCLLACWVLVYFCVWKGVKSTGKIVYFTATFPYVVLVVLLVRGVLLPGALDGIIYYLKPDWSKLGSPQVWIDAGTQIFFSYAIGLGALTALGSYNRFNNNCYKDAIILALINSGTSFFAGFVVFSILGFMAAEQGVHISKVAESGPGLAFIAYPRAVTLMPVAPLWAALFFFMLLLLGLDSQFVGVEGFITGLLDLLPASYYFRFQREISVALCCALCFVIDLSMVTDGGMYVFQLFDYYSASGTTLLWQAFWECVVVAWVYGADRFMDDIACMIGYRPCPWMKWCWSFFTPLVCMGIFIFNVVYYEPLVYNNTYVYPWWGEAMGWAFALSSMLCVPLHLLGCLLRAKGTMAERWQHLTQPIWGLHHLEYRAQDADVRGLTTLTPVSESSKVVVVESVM
- Protocol notes: cryo-EM structure
- Type: binding
Quantity: Kd (µM)
Give bare numbers, in µM.

Lookup result for CN(CC(=O)O)C(=N)N ; measured Kd: 3.2

* * *

- Measured target: human creatine transporter (hCRT, SLC6A8) (Homo sapiens)
- Protocol notes: cryo-EM structure
- Type: binding
Quantity: Kd (µM)
One number for each entry, in µM.

Lookup result for N=C(N)NCCC(=O)O ; measured Kd: 3.39
